Target: CdnP (Mycobacterium tuberculosis)
Sequence (P71615 whole entry, looked up): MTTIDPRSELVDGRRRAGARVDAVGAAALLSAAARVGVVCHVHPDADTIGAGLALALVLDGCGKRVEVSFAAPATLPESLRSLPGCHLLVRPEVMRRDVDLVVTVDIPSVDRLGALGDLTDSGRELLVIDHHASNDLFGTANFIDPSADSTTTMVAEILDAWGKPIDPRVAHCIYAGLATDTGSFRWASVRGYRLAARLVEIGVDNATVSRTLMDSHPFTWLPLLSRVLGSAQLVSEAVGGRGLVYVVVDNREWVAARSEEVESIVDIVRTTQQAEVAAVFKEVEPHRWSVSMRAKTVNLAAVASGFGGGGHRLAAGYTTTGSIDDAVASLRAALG
Assay: Surface plasmon resonance (SPR) binding assay
Conditions: KD, 1:1 binding, multi-cycle kinetics
Kindly state Kd for each of the entries shown.
The response must be a number in µM with no trailing unit.

The reported value for `COc1ccc(-c2cc(=O)c3c(O)cc(O[C@@H]4O[C@H](CO)[C@@H](O)[C@H](O)[C@H]4O[C@@H]4O[C@@H](C)[C@H](O)[C@@H](O)[C@H]4O)cc3o2)cc1O` in terms of Kd is 384

The reported value for O=C1CCc2cc(OCCCCc3nnnn3C3CCCCC3)ccc2N1 [Cilostazol, reference compound] in terms of Kd is 4.18

The reported value for `C[C@@H]1O[C@@H](O[C@H]2[C@H](Oc3cc(O)c4c(=O)cc(-c5ccc(O)cc5)oc4c3)O[C@H](CO)[C@@H](O)[C@@H]2O)[C@H](O)[C@H](O)[C@H]1O` in terms of Kd is 0.972

The reported value for COc1ccc([C@]2(C#N)CC[C@@H](C(=O)O)CC2)cc1OC1CCCC1 [Cilomilast, reference compound] in terms of Kd is 44200

The reported value for `C[C@@H]1O[C@@H](OC[C@H]2O[C@@H](Oc3cc(O)c4c(=O)cc(-c5ccc(O)cc5)oc4c3)[C@H](O[C@@H]3O[C@@H](C)[C@H](O)[C@@H](O)[C@H]3O)[C@@H](O)[C@@H]2O)[C@H](O)[C@H](O)[C@H]1O` in terms of Kd is 0.0189
